Test system: HOP-92
Experiment: NCI tumour cell line growth inhibition, 48 h
Active and inactive are the calls of the source. Cut-off read from the data, not from the text of the source: active = GI50 up to about 1.1 µM and inactive = higher.
Items are presented alongside their recorded GI50.
endpoint-name: GI50

{"molecule": "CCCn1cnc2c(/N=N/O)ncnc21", "result": "> 100 µM (inactive)"}
{"molecule": "COc1ccc(/C=N/NC(=O)C2=C(N)N(c3ccccc3)C(=C(C#N)C#N)S2)cc1", "result": "39.3 µM (inactive)"}
{"molecule": "Cc1cc(C)c2c(c1)CC1(Cc3cc(C)c(C)cc3C1=O)C2=O (centres undefined)", "result": "60.5 µM (inactive)"}
{"molecule": "COC(=O)c1cc(C#Cc2cc(OC)ccc2OC)ccc1OC", "result": "22.9 µM (inactive)"}
{"molecule": "O=C(O)C1C2c3ccccc3C(c3ccccc32)C1C(=O)NCC1CC1 (centres undefined)", "result": "70.5 µM (inactive)"}
{"molecule": "NC(=O)NC1NC(=O)NC1=O (centres undefined)", "result": "> 100 µM (inactive)"}
{"molecule": "COC(=O)C(=O)C(C(=O)C(N)=O)c1nc2ccc(C(=O)c3ccccc3)cc2nc1O (centres undefined)", "result": "> 100 µM (inactive)"}
{"molecule": "O=c1cc(NNc2ccc3ccccc3c2)[nH]c(=S)[nH]1", "result": "28.1 µM (inactive)"}
{"molecule": "COC(=O)C(/C(=N/NC(N)=O)C(=O)Nc1ccc(C)cc1)c1nc2ccc([N+](=O)[O-])cc2nc1O (centres undefined)", "result": "> 100 µM (inactive)"}
{"molecule": "CC(C)(C)C(=O)ON1N=NC2C3CC(OCc4ccccc4)(OCc4ccccc4)C(O3)C21 (centres undefined)", "result": "12 µM (inactive)"}
{"molecule": "CC(C)CC1NC(=O)CCC(NC(=O)C(Cc2ccc(O)cc2)NC(=O)OCc2ccccc2)C(=O)NC(Cc2ccccc2)C(=O)NC(Cc2ccccc2)NC1=O (centres undefined)", "result": "> 100 µM (inactive)"}
{"molecule": "O=c1oc2cccnc2n1CCCCN1CCN(c2ccccc2)CC1", "result": "> 100 µM (inactive)"}
{"molecule": "CCOC(=O)C(Cl)(NC(=O)c1ccc(F)cc1)C(F)(F)F (centres undefined)", "result": "> 100 µM (inactive)"}
{"molecule": "CN[C@@H](C)[C@H](N)c1ccccc1", "result": "> 100 µM (inactive)"}
{"molecule": "Cc1ccc2nc(/C=N/c3ccccc3Cl)cc(C)c2c1", "result": "25.4 µM (inactive)"}
{"molecule": "CC(=O)SC(C[N+](=O)[O-])c1ccccc1 (centres undefined)", "result": "12.6 µM (inactive)"}
{"molecule": "CC(=O)c1c(SCCN2CCCC2)n(-c2ccccc2)c(=S)n(-c2ccccc2)c1=O", "result": "3.27 µM (inactive)"}
{"molecule": "COC(Cc1cc(C(O)(c2ccc(C(C)(C)C)cc2)c2cc(CC(OC)(c3cc(C(OC)(c4ccc(C(C)(C)C)cc4)c4ccc(C(C)(C)C)cc4)c(C)cc3C)c3cc(C(OC)(c4ccc(C(C)(C)C)cc4)c4ccc(C(C)(C)C)cc4)c(C)cc3C)c(C)cc2C)c(C)cc1C)(c1cc(C(OC)(c2ccc(C(C)(C)C)cc2)c2ccc(C(C)(C)C)cc2)c(C)cc1C)c1cc(C(OC)(c2ccc(C(C)(C)C)cc2)c2ccc(C(C)(C)C)cc2)c(C)cc1C", "result": "> 75 µM (inactive)"}
{"molecule": "O=C(O)CSSCC(=O)O", "result": "> 100 µM (inactive)"}

* * *

Test system: NCI-H23
Assay: NCI tumour cell line growth inhibition, 48 h
Structures can show the parent of a compound that is named as a salt. The source made the active and inactive calls. No stated cut-off is given here; in the data, active = GI50 up to about 1.1 µM and inactive = higher.

{"compound": "CC(=O)NC1=C(NCC(C)C)C(=O)c2ccccc2C1=O", "GI50": "20 µM (inactive)"}
{"compound": "O=C(/C=C/c1ccc(-c2ccccc2)cc1)NCc1ccc(C(=O)NCCc2ccccc2)cc1", "GI50": "> 100 µM (inactive)"}
{"compound": "O=C(Cc1ccccc1)N/N=C1\\C(=O)Nc2ccccc21", "GI50": "95.5 µM (inactive)"}
{"compound": "CN(C)C(=O)Nc1cc2c3c(c1)CCCN3CCC2", "GI50": "> 10 µM (inactive)"}
{"compound": "CCS[C@H]1NC(=O)C1[C@H](C)O[Si](C)(C)C(C)(C)C (some centres not stated)", "GI50": "> 100 µM (inactive)"}
{"compound": "CCCCCCCC[N+](C)(C)Cc1ccc(C[N+](C)(C)CCCCCCCC)cc1", "GI50": "4.55 µM (inactive)"}
{"compound": "Cc1ccc(S(=O)(=O)N2CCCCC2CCO)cc1 (configuration not stated)", "GI50": "> 100 µM (inactive)"}
{"compound": "COC1OC2COC1(OCc1ccccc1)C1OC(C)(C)OC21 (configuration not stated)", "GI50": "> 100 µM (inactive)"}
{"compound": "CN1CCC(CN2c3ccccc3Sc3ccccc32)C1 (configuration not stated) [METHDILAZINE HYDROCHLORIDE]", "GI50": "20.3 µM (inactive)"}
{"compound": "CNC(=O)NCCN1CC2CCC(CC2)C1", "GI50": "> 10 µM (inactive)"}
{"compound": "CC(=O)NC(CCCCN(Cc1ccccc1)C(=O)NCCCl)C(=O)NCc1ccccc1 (configuration not stated)", "GI50": "> 100 µM (inactive)"}
{"compound": "Cc1ccc(S(=O)(=O)ON2C(=O)c3cccc4cc([N+](=O)[O-])cc(c34)C2=O)cc1", "GI50": "> 100 µM (inactive)"}

* * *

Test system: HOP-92
Experiment: NCI tumour cell line growth inhibition, 48 h
Activity calls are given as the source filed them. No stated cut-off is given here; in the data, active = GI50 up to about 1.1 µM and inactive = higher.

{"compound": "O=C1N/C(=N\\N=C\\c2ccccc2)C(c2ccccc2)O1 (stereo not drawn)", "target-under-test": "HOP-92", "GI50": "> 100 µM (inactive)"}
{"compound": "CCCCCn1cc2c3c(cccc31)C1C=C(C)CN(C)[C@@H]1C2.Cc1ccc(C(=O)OC(C(=O)O)C(OC(=O)c2ccc(C)cc2)C(=O)O)cc1 (stereo not drawn)", "target-under-test": "HOP-92", "GI50": "1.6 µM (inactive)"}
{"compound": "O=c1cc(-c2ccccc2)oc2cc(OCCCCCCCCCCOc3ccc4c(=O)cc(-c5ccccc5)oc4c3)ccc12", "target-under-test": "HOP-92", "GI50": "> 100 µM (inactive)"}
{"compound": "C=[N+](CNC(=O)CNC(=O)C(Cc1ccc([N+](=O)[O-])cc1)NC(=O)OC(C)(C)C)C(=O)CNC(=O)C(Cc1ccc([N+](=O)[O-])cc1)NC(=O)OC(C)(C)C (stereo not drawn)", "target-under-test": "HOP-92", "GI50": "38.1 µM (inactive)"}
{"compound": "CC(C)(NO)/C(=N\\O)c1ccco1", "target-under-test": "HOP-92", "GI50": "> 100 µM (inactive)"}
{"compound": "CN/N=C(\\C(=O)Nc1ccc(C)c(C)c1)C(C(=O)OC)c1nc2ccc([N+](=O)[O-])cc2nc1O (stereo not drawn)", "target-under-test": "HOP-92", "GI50": "> 100 µM (inactive)"}
{"compound": "CC12CC3OC(=O)C1COC14OC5(C2C1=O)C(O)(CCC1C4CC2OC24CC=CC(=O)C14C)C(=O)OC35C (stereo not drawn)", "target-under-test": "HOP-92", "GI50": "21.8 µM (inactive)"}
{"compound": "CN(CCCNC(=O)c1cn(C)c2c1ccc1cc(Cl)ccc12)CCCNC(=O)c1cn(C)c2c1ccc1cc(Cl)ccc12", "target-under-test": "HOP-92", "GI50": "3.6 µM (inactive)"}

* * *

Tested on: SNB-78
Assay: NCI tumour cell line growth inhibition, 48 h
The source made the active and inactive calls. Cut-off read from the data, not from the text of the source: active = GI50 up to about 1.1 µM and inactive = higher.

{"compound": "CCCCCCCC[N+](C)(C)Cc1ccc(C[N+](C)(C)CCCCCCCC)cc1", "GI50": "44.3 µM (inactive)"}
{"compound": "CSc1nc2c(ncn2C2OCC(O)C(O)C2O)c(=O)[nH]1 (stereo not given)", "GI50": "> 100 µM (inactive)"}
{"compound": "Cc1nc(C(N)=S)sc1C(=O)CC(=O)C(=O)Nc1c(C(C)C)cccc1C(C)C", "GI50": "66.2 µM (inactive)"}
{"compound": "CC(C)(C)C(=O)ON1N=NC2C3CC(OCc4ccccc4)(OCc4ccccc4)C(O3)C21 (stereo not given)", "GI50": "26 µM (inactive)"}
{"compound": "COc1cc2cnc3c4ccccc4ccc3c2cc1OC", "GI50": "> 100 µM (inactive)"}
{"compound": "COC(=O)C1Cc2c(n(Cc3ccccc3)c3ccccc23)C(CCC(=O)O)N1C(C)C (stereo not given)", "GI50": "> 100 µM (inactive)"}
{"compound": "O=c1c2ccccc2nc(-c2ccccc2)n1NCC1(O)OCC(O)C(O)C1O (stereo not given)", "GI50": "> 100 µM (inactive)"}
{"compound": "Oc1nnc(CNc2ccc(Cl)cc2Cl)c2ccccc12", "GI50": "62.7 µM (inactive)"}
{"compound": "CCOc1cccc2c1N[S@@](=O)S2", "GI50": "> 100 µM (inactive)"}
{"compound": "CCCCCCCCCC(=O)OCC1OC(n2cc(F)c(=O)[nH]c2=O)C(N)C(OC(=O)CCCCCCCCC)C1O (stereo not given)", "GI50": "15.8 µM (inactive)"}
{"compound": "COc1ccc2c3c([nH]c2c1[N+](=O)[O-])C(C)N(Cc1ccc([N+](=O)[O-])cc1)CC3 (stereo not given)", "GI50": "26.2 µM (inactive)"}
{"compound": "CC1=C(c2ccccc2)CON(c2ccccc2)C1", "GI50": "39.9 µM (inactive)"}
{"compound": "O=C(NC(=O)c1cn(CCN2CCN(C(=O)NCCCCCCNC(=O)N3CCN(CCn4cc(C(=O)NC(=O)OCc5ccccc5)c(=O)[nH]c4=O)CC3)CC2)c(=O)[nH]c1=O)OCc1ccccc1", "GI50": "> 100 µM (inactive)"}
{"compound": "CC(=O)Nc1ccc(C(=O)N2N=C(C)/C(=C/c3cccc([N+](=O)[O-])c3)C2=O)cc1", "GI50": "> 100 µM (inactive)"}
{"compound": "Cc1cc2c(=O)cc(-c3ccc(Cl)cc3Cl)oc2c(C(=O)O)c1C", "GI50": "> 100 µM (inactive)"}
{"compound": "COc1ccc(/C=C/C(=O)C(C)C)cc1", "GI50": "14.9 µM (inactive)"}
{"compound": "N#CC(C(=O)CCC(=O)Nc1cccc(C(F)(F)F)c1)c1ccccc1 (stereo not given)", "GI50": "> 100 µM (inactive)"}
{"compound": "O=C(Nc1cccc(Cl)c1)C(=O)C(C(=O)c1ccc2ccccc2c1)C1OC(=O)c2ccccc21 (stereo not given)", "GI50": "5.9 µM (inactive)"}
{"compound": "Cc1ccc(S(=O)(=O)OCCn2cnc3nc(NC(=O)c4ccccc4)[nH]c(=O)c32)cc1", "GI50": "> 100 µM (inactive)"}
{"compound": "CCN(CC)C(=O)Cc1[nH][nH]c(=O)c1C(=O)N(CC)CC", "GI50": "> 100 µM (inactive)"}

Origin of values: ChEMBL document CHEMBL1201862
